Assay: protein stability index of a GFP-peptide fusion (GPS, HEK-293T) (PSI 1-6); higher = more stable;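 also: 24-mer peptide tiles fused after GFP, lentivirally expressed, FACS-sorted into six equal bins by GFP/DsRed ratio, decoded by Illumina sequencing, PSI is the read-weighted mean bin number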
Details: treatment: DMSO; c terminus: a fixed tail appended
Please note: Satisfied applies when protein stability index is 4 or greater, and Not satisfied applies otherwise.

| Input Sequence | Assigned Category |
| --- | --- |
| SERCQRQLQSLCRGLGLGGRRLKS [FANCE] | Not satisfied |
| INVYGNTALHIACYNGQDAVVNEL [ANKRD44] | Not satisfied |
| SIVAQVDQTGSKSSNLLDLKNPFF [CARM1] | Not satisfied |
| IKYFRVDFYEAMDDYTSAIEVQPN [TTC32] | Not satisfied |
| FDKEWVAKQTKRMLDMKVNPIQGL [COX4I1] | Not satisfied |
| LLEATCPFGENAEFPADISSITEA [NFE2L1] | Satisfied |
| DMMVMGRKPDPMCVFTYVQSLYNH [SMTNL2] | Not satisfied |
| LEFRSFWELIGEAAKSVKLERPVR [S100A14] | Not satisfied |
| MEEGERSPLLSQETAGQKPLSVHR [TSPAN10] | Satisfied |
| EQGAIPRLVQLLVRAHQDTQRRTS [CTNNB1] | Not satisfied |
| FLLCARSLLRGFLLQNEFVGFMWR [MCOLN1] | Not satisfied |
| PAVENKQQIGDAIRMIVRGTLGSC [PLK2] | Not satisfied |
| GTGTGPEDGRPSLGSPYGQPPRFP [PDLIM4] | Satisfied |
| EACKAFFKRTIQGSIEYSCPASNE [ESRRA] | Not satisfied |
| ICDRTATPLDAFRMTSAAHYYPKL [GFOD1] | Not satisfied |
| AFPQTPFKTGNSTATCTTNNNPNS [KCNA3] | Satisfied |
| LPSLGLPQYRSYFMECLVDARMLD [PPFIA4] | Not satisfied |
| ANIEEVLQRGEALSALDSKANNLS [SEC22B] | Satisfied |
| YMYYFQYLSKTYCVDATRETNRLG [KMT5A] | Not satisfied |
| AGLFSQEQYERNKSSSSSSSSSSS [TMEM40] | Satisfied |
| QLQPTSIEKEVFPIMAKEGQLYAM [GMPPB] | Not satisfied |
| SHYTSPSENMWNTGSTYNLSSGMA [CARM1] | Not satisfied |
| HRTVKLVPWSQCLQNFLLHGTKNV [WSB1] | Not satisfied |
| GQPLRPLVPDASKQRLMENTEDWR [PDLIM7] | Satisfied |
| PVMNGGVQTWTQPRLCYLVKEGGS [PDZK1] | Not satisfied |
| TRFILSKVPSEAPSPMPTHRSYLG [SLC6A17] | Not satisfied |
| PQLVSSAREGSSEPWLPLTDGRSP [PLEKHN1] | Satisfied |
| GNNLLVFGGTGIPFGESNGNGVHV [KLHDC10] | Not satisfied |
| QKQQAPRMDTPPPEERLEKQNEKL [CCDC89] | Satisfied |
| APQHPQPGSQALPAPALAPDQLPQ [FBXO28] | Satisfied |
| QGGGNGQQQQAMSFAILRIIRLVR [KCNA4] | Not satisfied |
| KQRPTKLKSLIRLVKHWYQNCKKK [OAS1] | Not satisfied |
| RVYPKCTWLTTPKSTWPRYSKPGL [TCF25] | Not satisfied |
| LDAVEAQIGCKLPDDYRCSYRIHN [FBXO3] | Not satisfied |
| MLERRYTPYPNLYPDQSPSEDWTM [CLCN6] | Not satisfied |
| RDEHRARAMKIPFTNDKIINLPVE [NFE2L1] | Satisfied |
| GVTEEQEGFADGFVKALDDLHKMN [JUNB] | Satisfied |
| INYNGIFSLKQEETLDYGKNYNYG [NEUROD6] | Not satisfied |
| AMEYAPGGTLAEFIQKRCNSLLEE [NEK8] | Not satisfied |
| EFMKTLEKTGPQLTSRIKGDWIGL [DENND6A] | Not satisfied |
| RYSSDTTPLLNGSSQDRMFETMAI [GOSR1] | Not satisfied |
| ILTEPAQAQKCYRDLALVSRDGMN [INTS3] | Not satisfied |

---

Experiment: protein stability index of a GFP-peptide fusion (GPS, HEK-293T) (PSI 1-6); higher = more stable
Settings: treatment: MLN4924 1 uM, 8 h; c terminus: a fixed tail appended
Please note: label 1 applies when protein stability index is 3 or greater, and label 0 applies otherwise.

| Input Sequence | Assigned Category |
| --- | --- |
| HSKQYRCLSFQPECSMKLTPLVLE [VDR] | label 0 |
| VVGGAMFFIGFTALVIMWQKHYVY [COX4I1] | label 1 |
| KSPIAPCSLDKRVILIFHCEFSSE [CDC25B] | label 0 |
| IPQAGGWGPWGPWGDCSRTCGGGV [ADAMTS4] | label 0 |
| KGSLPQPPITEVESQVFSEKLATD [ZNF232] | label 1 |
| GQGPKPEADSQEQGHPQTGCECED [GAGE1] | label 1 |
| QERERVLTHFSRRYCQCNPDDSTS [PSD2] | label 1 |

---

Assay: protein stability index of a GFP-peptide fusion (GPS, HEK-293T) (PSI 1-6); higher = more stable
Conditions: treatment: MLN4924 1 uM, 8 h; c terminus: native
Please note: 1 (yes) applies when protein stability index is 3 or greater, and 0 (no) applies otherwise.

| Input Sequence | Assigned Category |
| --- | --- |
| MRSNYPPPLSSAALRGAGPTRRN [C6orf223] | 1 (yes) |
| YTSSLACHRALQDAFSGLFWQPS [MNAT1] | 0 (no) |
| NFFTTLRVVHHKFHSQRHGSKKD [TMEM120A] | 1 (yes) |
| KYSVYIYVYFHTKLTSQNSKRVS [R3HDM1] | 0 (no) |
| APPPLKDDPEGDRDGCVITKVLL [ZBED3] | 1 (yes) |

---

Test: protein stability index of a GFP-peptide fusion (GPS, HEK-293T) (PSI 1-6); higher = more stable
Conditions: treatment: MLN4924 1 uM, 8 h; c terminus: a fixed tail appended

| Input Sequence | protein stability index |
| --- | --- |
| VESFKTKVSYLKQKGLGGAMVWAL [CHIT1] | 2.7 |
| LGPVPREDQAEAWGCSCCPPETKH [TSPAN10] | 4.97 |
| SKIFTTLDPASLAWLTEEEPEPAE [DDIT3] | 5.11 |
| LALRTLPGPSWVRGSGPSVLSRLQ [ALKBH7] | 2.48 |
| QVITLDQVLDEVIPIHGKGNFPTM [TENT5D] | 2.32 |
| WGDCSRTCGGGVQFSSRDCTRPVP [ADAMTS4] | 2.94 |
| VLTKKFQVTMRGLLSCLSKSNNRL [FBXO39] | 3.24 |
| ILILEGGYNLTSISESMAACTRSL [HDAC6] | 2.63 |
| RAPQGCSGVDECARQEGLTFFGTE [PBXIP1] | 4.3 |
| INRTFFFDVHPPLGKMLIGLAGYL [POMT2] | 2.6 |
| KVLLCHGELRSKSGHKLYIFLFQD [NET1] | 2.57 |
| KEMEQLFSQYGRIITSRILVDQVT [ELAVL3] | 3.41 |
| PVHLVDKLPLPSTLRSHLKSFSMA [RAB40A] | 2.63 |
| QPAFTGIKGKEGSALTEGAKEEGG [EPB41L3] | 5.65 |
| EQVNFCESSNDFGPYEGGGPVAGL [ZBTB22] | 4.32 |
| FLPTALLCAYGFFASLRPSEPFLT [SLC19A2] | 3.26 |
| FDSDWYTSRNLIGGADIIVIKYNV [RHOBTB3] | 3.12 |
| GAGHFEVVKLLVSHGANVNHTTVT [FEM1B] | 2.26 |
| DLAYQLQVAKTKQQIEEQRVQVQV [FLOT1] | 3.73 |
| DFYREDEDEEEEEGGEGEKEGEGE [TRIM55] | 5.79 |
| SNWFVWVTQMNHIPMHIDHDRNMD [FADS1] | 2.19 |

---

Known protein stability index of a selection of sequences
Assay: protein stability index of a GFP-peptide fusion (GPS, HEK-293T) (PSI 1-6); higher = more stable
Details: treatment: MLN4924 1 uM, 8 h; c terminus: a fixed tail appended

| Input Sequence | protein stability index |
| --- | --- |
| EACKAFFKRTIQGSIEYSCPASNE [ESRRA] | 3 |
| LDAVEAQIGCKLPDDYRCSYRIHN [FBXO3] | 3.15 |
| APTPPSLSQRVMCNDLFKVNPFQL [TIAF1] | 2.25 |
| GLTKKRTKVQKKSLLLKKPLRVDL [NOP53] | 3.42 |
| GHHERSIMTDLYYLSQTDGAGDWR [FUT8] | 3.12 |
| PAITATLLDFMCRIIPNFYPPLEG [INTS3] | 3.1 |
| FLLAFGLMIIVCIDQWKNKIWPEI [RETREG3] | 3.09 |
| GRFEQLGKTAASWCLHVNNWLQVS [FSD1] | 1.96 |
